System: rat jejunal sac
Test: In vitro permeation of rat jejunal sac by iron complexes
Reported values of Relative iron uptake, 60 minutes for individual entries
outcome measure: Relative iron uptake, 60 minutes

[
  {
    "compound": "Cc1occc(=O)c1[O-].Cc1occc(=O)c1[O-].Cc1occc(=O)c1[O-].[Fe+3]",
    "assayed system": "rat jejunal sac",
    "reported result": 5.8
  },
  {
    "compound": "O=S(=O)([O-])[O-].[Fe+2] [Fe^II sulphate, iron(II) sulphate]",
    "assayed system": "rat jejunal sac",
    "reported result": 1.4
  },
  {
    "compound": "O=C([O-])CC(O)(CC(=O)[O-])C(=O)[O-].[Fe+3] [Fe^III citrate]",
    "assayed system": "rat jejunal sac",
    "reported result": 1.8
  },
  {
    "compound": "O=C([O-])CCC(=O)[O-].[Fe+2] [Fe^II succinate]",
    "assayed system": "rat jejunal sac",
    "reported result": 1.0
  },
  {
    "compound": "O=C([O-])/C=C/C(=O)[O-].[Fe+2] [Fe^II fumarate]",
    "assayed system": "rat jejunal sac",
    "reported result": 1.8
  }
]
